# Target Desc: RAC-alpha serine/threonine-protein kinase (Homo sapiens)
# Measurement Protocol: Inhibition of PKBalpha (unknown origin) at 1 uM incubated for 30 mins in presence of [gamma-33P]ATP by multidrop micro reagent based assay relative to control; values are per cent of control
Measured Metric: residual activity (%)
Report as a plain number; the unit % is understood.

Worked examples, 3 molecules total:
Molecule: CC1=C(C(=O)Nc2cc3cn[nH]c3cc2F)C(c2ccc(C(F)(F)F)cc2)CC(=O)N1 (centres undefined)
Observed Measurement: 72
//
Molecule: CCn1c(-c2nonc2N)nc2cnc(Oc3cccc(NC(=O)c4ccc(OCCN5CCOCC5)cc4)c3)cc21 [GSK-269962A]
Observed Measurement: 26
//
Molecule: CCN(CC)CCNC(=O)c1c(C)[nH]c(/C=C2\C(=O)Nc3ccc(F)cc32)c1C
Observed Measurement: 73

We now examine a further molecule.
[ask] Quote RAC-alpha serine/threonine-protein kinase (Homo sapiens) residual activity for entry Cc1cncc2cccc(S(=O)(=O)N3CCCNC[C@@H]3C)c12 .
[reply] 64

====

# Target Desc: Maternal embryonic leucine zipper kinase (Homo sapiens) (UniProt Q14680)
# Sequence (Q14680 whole entry, looked up): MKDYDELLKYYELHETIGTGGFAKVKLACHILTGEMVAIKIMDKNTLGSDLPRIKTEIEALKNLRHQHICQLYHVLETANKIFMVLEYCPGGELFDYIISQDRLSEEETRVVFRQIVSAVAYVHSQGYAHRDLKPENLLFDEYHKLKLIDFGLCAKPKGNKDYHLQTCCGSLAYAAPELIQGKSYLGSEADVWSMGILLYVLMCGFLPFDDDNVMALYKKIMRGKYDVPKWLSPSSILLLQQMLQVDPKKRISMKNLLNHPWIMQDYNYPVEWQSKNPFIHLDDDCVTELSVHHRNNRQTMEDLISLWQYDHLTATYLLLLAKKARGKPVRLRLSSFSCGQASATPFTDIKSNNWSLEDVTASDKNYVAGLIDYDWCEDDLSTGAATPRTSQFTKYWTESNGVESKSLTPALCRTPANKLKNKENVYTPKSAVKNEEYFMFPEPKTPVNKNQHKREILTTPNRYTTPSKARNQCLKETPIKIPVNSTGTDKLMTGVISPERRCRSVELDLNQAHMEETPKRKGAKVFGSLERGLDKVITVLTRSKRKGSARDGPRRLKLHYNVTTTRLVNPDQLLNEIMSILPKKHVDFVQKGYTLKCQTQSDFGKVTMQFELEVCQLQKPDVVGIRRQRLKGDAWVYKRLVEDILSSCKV
# Measurement Protocol: Inhibition of MELK (unknown origin) at 1 uM incubated for 30 mins in presence of [gamma-33P]ATP by multidrop micro reagent based assay relative to control; values are per cent of control
Listed next: entries and their corresponding residual activity.
Report as a plain number; the unit % is understood.

Molecule: CC1=C(C(=O)Nc2cc3cn[nH]c3cc2F)C(c2ccc(C(F)(F)F)cc2)CC(=O)N1 (centres undefined)
residual activity [%]: 83
--
Molecule: Cc1cncc2cccc(S(=O)(=O)N3CCCNC[C@@H]3C)c12
residual activity [%]: 70
--
Molecule: CCn1c(-c2nonc2N)nc2cnc(Oc3cccc(NC(=O)c4ccc(OCCN5CCOCC5)cc4)c3)cc21 [GSK-269962A]
residual activity [%]: 44

[ask] Provide one value: measured residual activity of CCN(CC)CCNC(=O)c1c(C)[nH]c(/C=C2\C(=O)Nc3ccc(F)cc32)c1C
[reply] 17

====

# Target Desc: Ribosomal protein S6 kinase alpha-3 (Homo sapiens)
# Measurement Protocol: Inhibition of RSK2 (unknown origin) at 1 uM incubated for 30 mins in presence of [gamma-33P]ATP by multidrop micro reagent based assay relative to control; values are per cent of control
Measured Metric: residual activity (%)
Report as a plain number; the unit % is understood.

Compound: CCn1c(-c2nonc2N)nc2cnc(Oc3cccc(NC(=O)c4ccc(OCCN5CCOCC5)cc4)c3)cc21 [GSK-269962A]
residual activity (%): 24

Compound: CC1=C(C(=O)Nc2cc3cn[nH]c3cc2F)C(c2ccc(C(F)(F)F)cc2)CC(=O)N1 (stereo not drawn)
residual activity (%): 48

[ask] Provide one value: measured residual activity of Cc1cncc2cccc(S(=O)(=O)N3CCCNC[C@@H]3C)c12
[reply] 76
